Measured values drawn from patent US20240376151A1 for this set.

assayed_system: PPIA (Homo sapiens, UniProt P62937)
Construct: Full length PPIA (residues 1-165) with an N-terminal 6×his-yBBR-TEV tag; 6×his-yBBR-TEV (N); made in house; host or cells: E. coli BL21 (DE3) CodonPlus RIPL
Sequence (P62937 whole entry, the tested form may be a part): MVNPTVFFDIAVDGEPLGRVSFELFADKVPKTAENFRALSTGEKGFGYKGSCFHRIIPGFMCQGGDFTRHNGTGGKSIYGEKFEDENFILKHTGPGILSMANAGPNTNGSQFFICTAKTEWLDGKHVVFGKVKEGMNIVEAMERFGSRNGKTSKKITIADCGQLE
assay_details: Phage Library Screening with NGS, PPIA
Type: binding
setup_conditions: target concentration 1000, first column
Known phage screen counts, Target Concentration 1000 of a selection of sequences
endpoint: phage screen counts, Target Concentration 1000

- sequence_input: "DPARSDCHVAAYWCYHQ"
  assayed_system: "PPIA (Homo sapiens, UniProt P62937)"
  endpoint_value: 6
- sequence_input: "DPATMNCHVAAYFCIVE"
  assayed_system: "PPIA (Homo sapiens, UniProt P62937)"
  endpoint_value: 10
- sequence_input: "DPARADCHVAAYWCYHE"
  assayed_system: "PPIA (Homo sapiens, UniProt P62937)"
  endpoint_value: 9
- sequence_input: "PDCHIRAYMCN"
  assayed_system: "PPIA (Homo sapiens, UniProt P62937)"
  endpoint_value: 20
- sequence_input: "PYDCHIAAWMC"
  assayed_system: "PPIA (Homo sapiens, UniProt P62937)"
  endpoint_value: 20
- sequence_input: "DPAYYDCHIAAYFCRTQ"
  assayed_system: "PPIA (Homo sapiens, UniProt P62937)"
  endpoint_value: 93
- sequence_input: "PDCHVAAWMCF"
  assayed_system: "PPIA (Homo sapiens, UniProt P62937)"
  endpoint_value: 16
- sequence_input: "PDCHIQAYICH"
  assayed_system: "PPIA (Homo sapiens, UniProt P62937)"
  endpoint_value: 6
- sequence_input: "PNCHLYAWECY"
  assayed_system: "PPIA (Homo sapiens, UniProt P62937)"
  endpoint_value: 5
- sequence_input: "DPARADCQVAAYWCYHQ"
  assayed_system: "PPIA (Homo sapiens, UniProt P62937)"
  endpoint_value: 20
- sequence_input: "DPAQADCHIAAYLCLFD"
  assayed_system: "PPIA (Homo sapiens, UniProt P62937)"
  endpoint_value: 25
- sequence_input: "PDCHLNAYWCM"
  assayed_system: "PPIA (Homo sapiens, UniProt P62937)"
  endpoint_value: 47
- sequence_input: "DPARADCHVAAYWCYQQ"
  assayed_system: "PPIA (Homo sapiens, UniProt P62937)"
  endpoint_value: 10
- sequence_input: "DPARADCHVAAYWCYHR"
  assayed_system: "PPIA (Homo sapiens, UniProt P62937)"
  endpoint_value: 7
- sequence_input: "DPAQHDCHVAAYQCIWE"
  assayed_system: "PPIA (Homo sapiens, UniProt P62937)"
  endpoint_value: 616
- sequence_input: "PDCHIAAWYCR"
  assayed_system: "PPIA (Homo sapiens, UniProt P62937)"
  endpoint_value: 11
- sequence_input: "DPALFDCHIAAYQCIFY"
  assayed_system: "PPIA (Homo sapiens, UniProt P62937)"
  endpoint_value: 20
- sequence_input: "PNCHVMAYWCW"
  assayed_system: "PPIA (Homo sapiens, UniProt P62937)"
  endpoint_value: 10

* * *

assayed_system: CUL5 (Homo sapiens, UniProt Q93034, L345D/V341R)
Construct: GST-TEV (N, cleaved yes); made in house; host or cells: E. coli BL21 CodonPlus
Sequence (Q93034 1-386 V341R/L345D): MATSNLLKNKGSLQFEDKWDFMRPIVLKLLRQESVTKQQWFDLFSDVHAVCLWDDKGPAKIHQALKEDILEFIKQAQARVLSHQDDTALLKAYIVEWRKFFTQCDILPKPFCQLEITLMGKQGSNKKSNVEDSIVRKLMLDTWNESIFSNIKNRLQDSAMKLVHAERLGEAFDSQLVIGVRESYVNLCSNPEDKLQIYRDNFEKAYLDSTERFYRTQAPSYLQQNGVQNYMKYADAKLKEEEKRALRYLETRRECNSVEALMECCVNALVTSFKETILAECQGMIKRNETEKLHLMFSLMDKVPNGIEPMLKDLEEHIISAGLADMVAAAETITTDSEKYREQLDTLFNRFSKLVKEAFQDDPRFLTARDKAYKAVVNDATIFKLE
assay_details: Naive Library Presenter Screening (phage, NGS), CUL5
Assay type: binding
setup_conditions: CUL5 target concentration 100 nM
Ends that are not written are not given here.
Please use True whenever interaction data at Target Concentration 100 is not below 50, and False whenever it is.

- sequence_input: "DPAWRACAQAAWDCIIA"
  class_assignment: "True"
- sequence_input: "DPAWYECASAAWVCYSM"
  class_assignment: "True"
- sequence_input: "DPAWAICAEAAWDCFMI"
  class_assignment: "False"
- sequence_input: "DPAWRECAHAAWQCYIQ"
  class_assignment: "False"
- sequence_input: "DPAWHMCAEAAWQCAFW (not fully specified (C-terminus, bridges); cysteine pairing not given here)"
  class_assignment: "True"
- sequence_input: "DPAWWECAEAAWQCQVL"
  class_assignment: "False"
- sequence_input: "DPATFACANAAWECYAR"
  class_assignment: "False"
- sequence_input: "DPAWQWCAEAAWQCITH (not fully specified (C-terminus, bridges); cysteine pairing not given here)"
  class_assignment: "True"
- sequence_input: "DPAYYVCAEAAWNCLFE"
  class_assignment: "True"
- sequence_input: "DPAWMRCATAAWECVMT"
  class_assignment: "True"
- sequence_input: "DPAIQQCAEAAWSCYVE"
  class_assignment: "False"
- sequence_input: "DPAWMTCATAAWECYLA"
  class_assignment: "True"
- sequence_input: "DPAWFDCAEAAWQCVFI"
  class_assignment: "True"

* * *

assayed_system: MDM2 (Homo sapiens, UniProt Q00987)
Construct: made in house
Sequence (Q00987 25-109): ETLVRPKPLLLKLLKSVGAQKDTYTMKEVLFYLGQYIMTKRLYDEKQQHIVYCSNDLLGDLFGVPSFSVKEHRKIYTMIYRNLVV
assay_details: Naive Library Presenter Screening (phage, NGS), MDM2
Type: binding
setup_conditions: MDM2 clusters (C82, C85); target concentration 300 nM
Numbered stars: 1 amine (or outer) side, 2 acyl side, 3 side chain; on linkers, the order of the positions; unused ones are H or OH. Bridge positions count the residues as written; N and C are the ends. Ends that are not written are not given here. Phenylene(1,4-NHCOCH2)2 = O=C(C[*:1])Nc1ccc(NC(=O)C[*:2])cc1
Below, each entry is listed with its recorded interaction data at Target Concentration 300.
endpoint: interaction data at Target Concentration 300

- sequence_input: "DPAERNCFTAAWQCMVW (linker 7-14 via Phenylene(1,4-NHCOCH2)2 (inferred))"
  endpoint_value: 230
- sequence_input: "DPARLRCQDAAFACMWY (DPARLRCQDAAFACMWY-NH2; linker 7-14 via Phenylene(1,4-NHCOCH2)2 (inferred))"
  endpoint_value: 31
- sequence_input: "DPASAECFFAAWQCIAT (DPASAECFFAAWQCIAT-NH2; linker 7-14 via Phenylene(1,4-NHCOCH2)2 (inferred))"
  endpoint_value: 27
- sequence_input: "DPAMSNCFMAAWECLIQ (linker 7-14 via Phenylene(1,4-NHCOCH2)2 (inferred); not fully specified (C-terminus))"
  endpoint_value: 192
- sequence_input: "DPAHNLCFDAAWWCHWQ (linker 7-14 via Phenylene(1,4-NHCOCH2)2 (inferred))"
  endpoint_value: 7
- sequence_input: "DPAHYECTDAAFECYWF (linker 7-14 via Phenylene(1,4-NHCOCH2)2 (inferred))"
  endpoint_value: 74
- sequence_input: "DPAYSDCFQAAWTCMIH (linker 7-14 via Phenylene(1,4-NHCOCH2)2 (inferred))"
  endpoint_value: 155

* * *

assayed_system: CUL5 (Homo sapiens, UniProt Q93034, L345D/V341R)
Construct: GST-TEV (N, cleaved yes); made in house; host or cells: E. coli BL21 CodonPlus
Sequence (Q93034 1-386 V341R/L345D): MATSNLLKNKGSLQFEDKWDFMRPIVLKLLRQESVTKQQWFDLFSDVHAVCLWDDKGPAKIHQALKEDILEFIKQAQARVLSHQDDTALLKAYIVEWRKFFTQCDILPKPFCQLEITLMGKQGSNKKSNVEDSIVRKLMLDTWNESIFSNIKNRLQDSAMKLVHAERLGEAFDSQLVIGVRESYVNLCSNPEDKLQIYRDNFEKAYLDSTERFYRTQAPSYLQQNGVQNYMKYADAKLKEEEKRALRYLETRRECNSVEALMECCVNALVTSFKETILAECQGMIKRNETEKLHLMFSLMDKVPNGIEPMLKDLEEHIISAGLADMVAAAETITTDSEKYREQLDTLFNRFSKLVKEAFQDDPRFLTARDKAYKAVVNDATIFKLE
assay_details: Naive Library Presenter Screening (phage, NGS), CUL5
Assay type: binding
setup_conditions: CUL5 target concentration 30 nM
Ends that are not written are not given here.
Classify on interaction data at Target Concentration 30 using LOW (below 10), MID (10 to below 50), HIGH (50 or more)

- sequence_input: "DPAWRACAQAAWDCIIA"
  class_assignment: "HIGH"
- sequence_input: "DPAWYECASAAWVCYSM"
  class_assignment: "MID"
- sequence_input: "DPATFACANAAWECYAR"
  class_assignment: "LOW"
- sequence_input: "DPAWMRCATAAWECVMT"
  class_assignment: "MID"
- sequence_input: "DPAWFDCAEAAWQCVFI"
  class_assignment: "MID"
- sequence_input: "DPAWFTCAQAAWDCVFH"
  class_assignment: "HIGH"
- sequence_input: "DPAWQWCAEAAWQCITH (not fully specified (C-terminus, bridges); cysteine pairing not given here)"
  class_assignment: "HIGH"
- sequence_input: "DPAWHMCAEAAWQCAFW (not fully specified (C-terminus, bridges); cysteine pairing not given here)"
  class_assignment: "HIGH"
- sequence_input: "DPAWWECAEAAWQCQVL"
  class_assignment: "LOW"
- sequence_input: "DPAIQQCAEAAWSCYVE"
  class_assignment: "MID"
- sequence_input: "DPAWAICAEAAWDCFMI"
  class_assignment: "MID"
- sequence_input: "DPAYYVCAEAAWNCLFE"
  class_assignment: "MID"
- sequence_input: "DPAWMTCATAAWECYLA"
  class_assignment: "LOW"
